Biological target: T1, TNFR1 (Homo sapiens, UniProt P19438)
T1 chain: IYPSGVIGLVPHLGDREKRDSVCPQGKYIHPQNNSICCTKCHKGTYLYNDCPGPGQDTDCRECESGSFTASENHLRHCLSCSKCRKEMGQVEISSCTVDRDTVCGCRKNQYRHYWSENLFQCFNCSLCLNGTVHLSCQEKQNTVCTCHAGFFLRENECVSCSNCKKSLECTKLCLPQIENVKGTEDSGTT
Test: yeast display SC50
observable: apparent Kd (screen) (nM)

1) K88E (designed binder) SMEEEVEKAAKEYEKKKKEAIEKHLEKLKAKDKEAAERFLKELEEAAKEYAKDEAKTMSEEEAKRRAKKYKEKVLLSELSEEEQKEIEEAEEKLVRTILKYVEEAAK; 0.49
2) E92V (designed binder) SMEEEVEKAAKEYEKKKKEAIEKHLEKLKAKDKEAAERFLKELEEAAKEYAKDEAKTMSEEEAKRRAKKYKEKVLLSELSEEEQKEIKEAEVKLVRTILKYVEEAAK; 12.5
3) E7M (designed binder) SMEEEVMKAAKEYEKKKKEAIEKHLEKLKAKDKEAAERFLKELEEAAKEYAKDEAKTMSEEEAKRRAKKYKEKVLLSELSEEEQKEIKEAEEKLVRTILKYVEEAAK; 10.4
4) S77H (designed binder) SMEEEVEKAAKEYEKKKKEAIEKHLEKLKAKDKEAAERFLKELEEAAKEYAKDEAKTMSEEEAKRRAKKYKEKVLLHELSEEEQKEIKEAEEKLVRTILKYVEEAAK; 0.49
5) D32N (designed binder) SMEEEVEKAAKEYEKKKKEAIEKHLEKLKAKNKEAAERFLKELEEAAKEYAKDEAKTMSEEEAKRRAKKYKEKVLLSELSEEEQKEIKEAEEKLVRTILKYVEEAAK; 0.79
6) E5R (designed binder) SMEERVEKAAKEYEKKKKEAIEKHLEKLKAKDKEAAERFLKELEEAAKEYAKDEAKTMSEEEAKRRAKKYKEKVLLSELSEEEQKEIKEAEEKLVRTILKYVEEAAK; 0.446
7) M2W (designed binder) SWEEEVEKAAKEYEKKKKEAIEKHLEKLKAKDKEAAERFLKELEEAAKEYAKDEAKTMSEEEAKRRAKKYKEKVLLSELSEEEQKEIKEAEEKLVRTILKYVEEAAK; 0.446
8) E19C (designed binder) SMEEEVEKAAKEYEKKKKCAIEKHLEKLKAKDKEAAERFLKELEEAAKEYAKDEAKTMSEEEAKRRAKKYKEKVLLSELSEEEQKEIKEAEEKLVRTILKYVEEAAK; 0.446
